- TEST DESCRIPTION: AUC (0 to 24 hrs) in Balb/c mouse serum at 30 mg/kg, po
- Type: ADME, organism-based
- Set-up: time < 24 hr, dose 30 mg/kg, route oral
OBSERVABLE: AUC(0-t) at 24 h (ng·h/mL)
Provide the reading as a plain figure in ng·h/mL.

# get_value(readout='AUC(0-t) at 24 h', item= CC[C@]1(C)C[C@@H](OC(=O)CSC(C)(C)CNC(=O)[C@H](N)CC(C)C)[C@]2(C)[C@H](C)CC[C@]3(CC[C@@H](O)[C@H]32)[C@@H](C)[C@@H]1O )
2500

----------
Exercise: for every item that follows, state its recorded MIC.
- System: Staphylococcus aureus
- TEST DESCRIPTION: Antibacterial activity against Staphylococcus aureus BAA 1683 incubated for 24 hrs under aerobic condition by MABA
- Assay type: functional
- CONDITION DESCRIPTION: BAA 1683, 24 h, read-out: MIC100

# get_value(readout='MIC', item= CC[C@]1(C)C[C@@H](OC(=O)CSC(C)(C)CNC(=O)[C@H](N)CC(C)C)[C@]2(C)[C@H](C)CC[C@]3(CCC(=O)[C@H]32)[C@@H](C)[C@@H]1O )
> 25 µg/mL

# get_value(readout='MIC', item= C=C[C@]1(C)C[C@@H](OC(=O)CSC(C)(C)CNC(=O)[C@H](N)C(C)C)[C@]2(C)[C@H](C)CC[C@]3(CCC(=O)[C@H]32)[C@@H](C)[C@@H]1O )
> 25 µg/mL

# get_value(readout='MIC', item= CC(=O)NC[C@H]1CN(c2ccc(N3CCOCC3)c(F)c2)C(=O)O1 )
12.5 µg/mL

# get_value(readout='MIC', item= CC[C@]1(C)C[C@@H](OC(=O)CSC(C)(C)CNC(=O)[C@H](N)CC(C)C)[C@]2(C)[C@H](C)CC[C@]3(CC[C@@H](O)[C@H]32)[C@@H](C)[C@@H]1O )
> 25 µg/mL

# get_value(readout='MIC', item= C=C[C@]1(C)C[C@@H](OC(=O)CSC(C)(C)CNC(=O)[C@H](N)CC(C)C)[C@]2(C)[C@H](C)CC[C@]3(CCC(=O)[C@H]32)[C@@H](C)[C@@H]1O )
> 25 µg/mL

# get_value(readout='MIC', item= CO[C@H]1/C=C/O[C@@]2(C)Oc3c(C)c(O)c4c(O)c(c(/C=N/N5CCN(C)CC5)c(O)c4c3C2=O)NC(=O)/C(C)=C\C=C\[C@H](C)[C@H](O)[C@@H](C)[C@@H](O)[C@@H](C)[C@H](OC(C)=O)[C@@H]1C )
0.15 µg/mL

----------
- TEST DESCRIPTION: Cmax in Balb/c mouse at 30 mg/kg, po
- Type: ADME, organism-based
- Design: dose 30 mg/kg, route oral
- CONDITION DESCRIPTION: in vivo
OBSERVABLE: Cmax (ng/mL)
Provide the reading as a plain figure in ng/mL.

# get_value(readout='Cmax', item= CC[C@]1(C)C[C@@H](OC(=O)CSC(C)(C)CNC(=O)[C@H](N)CC(C)C)[C@]2(C)[C@H](C)CC[C@]3(CC[C@@H](O)[C@H]32)[C@@H](C)[C@@H]1O )
1340
